test system: Wolbachia pipientis; test: Anti-Wolbachia Cell-Based Screen; format: functional; parameters: scale not given: in the data most compounds retested in dose-response had high values; settings: 5 µM
Out of some 48,000 compounds screened, about 13,000 (27%) showed an effect of 50% or more. This is one part of the list.
Quick list: Percent Effect per entry.
Dear colleague, please return just the value in %, with no unit written.

Provide Percent Effect, recorded with Wolbachia pipientis, of CC(=O)N1N=C(c2ccncc2)OC1C(=O)N(C)CCc1ccccc1 (stereo not drawn) 108.6

Provide Percent Effect, recorded with Wolbachia pipientis, of O=C(CNc1cc(F)ccc1OC(F)F)NCC(F)(F)F -13.2

Provide Percent Effect, recorded with Wolbachia pipientis, of FC(F)(F)C1CCCn2c(CNCc3cccs3)nnc21 (stereo not drawn) -7.2

Provide Percent Effect, recorded with Wolbachia pipientis, of CCN1CC[C@@]2(C(=O)N3CCOCC3)CCN(S(=O)(=O)CC)CC[C@@H]12.O=C(O)C(F)(F)F -35.9

Provide Percent Effect, recorded with Wolbachia pipientis, of O=C(c1ccc[nH]1)N(Cc1ccc(O)cc1)CC1CC1 -7.123
